Provide the recorded IC50 for the entries that follow.
system under test: full-length human HPK1 (MAP4K1) (Homo sapiens (Human), UniProt Q92918)
Sequence (Q92918 whole entry): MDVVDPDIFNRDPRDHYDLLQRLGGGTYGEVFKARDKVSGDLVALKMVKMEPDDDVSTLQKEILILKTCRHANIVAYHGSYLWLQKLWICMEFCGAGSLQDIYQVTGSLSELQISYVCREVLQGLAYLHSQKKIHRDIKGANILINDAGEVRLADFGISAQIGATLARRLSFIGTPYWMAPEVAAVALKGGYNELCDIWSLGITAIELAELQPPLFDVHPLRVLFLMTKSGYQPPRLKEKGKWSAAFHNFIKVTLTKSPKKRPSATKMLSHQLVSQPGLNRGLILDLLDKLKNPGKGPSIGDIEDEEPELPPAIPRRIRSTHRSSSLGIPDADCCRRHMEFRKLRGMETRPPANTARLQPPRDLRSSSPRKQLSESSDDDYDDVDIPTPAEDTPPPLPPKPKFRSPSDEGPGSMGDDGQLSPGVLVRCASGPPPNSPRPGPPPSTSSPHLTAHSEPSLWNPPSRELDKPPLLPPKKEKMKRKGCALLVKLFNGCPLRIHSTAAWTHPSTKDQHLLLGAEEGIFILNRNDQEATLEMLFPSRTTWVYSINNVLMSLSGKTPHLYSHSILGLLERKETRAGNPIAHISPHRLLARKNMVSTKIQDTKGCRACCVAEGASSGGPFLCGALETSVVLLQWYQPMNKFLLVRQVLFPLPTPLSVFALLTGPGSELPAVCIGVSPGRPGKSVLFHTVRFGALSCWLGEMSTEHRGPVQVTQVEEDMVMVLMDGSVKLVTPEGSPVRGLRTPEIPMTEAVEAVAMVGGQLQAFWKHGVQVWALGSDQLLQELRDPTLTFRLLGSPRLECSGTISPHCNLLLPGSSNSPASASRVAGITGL
method description: HPK1 Kinase Assay (Biochemical Assay), ADP-Glo
measurement conditions: GST-HPK1 3.2 nM, 10 μM ATP, MBP substrate, read-out: HPK1 enzymatic IC50

Sure, the documented IC50 for Cc1c(N2CCc3cnc(Nc4ccc(C5CCN(C)CC5)c(CC#N)c4)nc3C2)cnc2c1NCCO2 is < 100 nM

Sure, the documented IC50 for Cc1c(N2CCc3cnc(Nc4cc5n(n4)CC(=O)N(C)CC5)cc3C2)cnc2c1NCCO2 is < 100 nM

Sure, the documented IC50 for Cc1cc(Nc2ncc3c(n2)CN(c2cnc4c(c2Cl)NCCO4)CC3)ccc1NC(=O)CN1CCC1 is < 100 nM

Sure, the documented IC50 for Cc1c(N2CCc3cnc(Nc4ccc(CCS(C)(=O)=O)cc4)nc3C2)cnc2c1NCCO2 is < 100 nM

Sure, the documented IC50 for Cc1c(N2CCc3cnc(Nc4ccc(OCS(C)(=O)=O)cc4)nc3C2)cnc2c1NCCO2 is < 100 nM

Sure, the documented IC50 for Cc1c(N2CCc3cnc(Nc4ccc(N5CCC(OC(F)(F)F)CC5)cc4)nc3C2)cnc2c1NCCO2 is < 100 nM

Sure, the documented IC50 for Cc1c(N2CCc3cnc(Nc4cccc(CN5CCN(C)CC5)c4)nc3C2)cnc2c1NCCO2 is < 100 nM

Sure, the documented IC50 for Cc1c(N2CCc3cnc(Nc4cnc5c(c4)CN(C)CC5)nc3C2)cnc2c1NCCO2 is < 100 nM

---

system under test: HPK1 (SLP76 phosphorylation at Ser376 in Jurkat and EL-4 cells) (Homo sapiens, UniProt Q92918)
Sequence (Q92918 whole entry, looked up): as the sequence (Q92918 whole entry) above
Type: cell-based
measurement conditions: αCD3/αCD28 Dynabeads stimulated cells, pSLP76 (Ser376) detection; read-out: HPK1 pSLP76 IC50
pIC50: −log10 of the molar value.
parameter measured: pIC50

Sure, the documented pIC50 for Cc1c(N2CCc3cnc(Nc4cccc(Cn5ccnc5)c4)nc3C2)cnc2c1NCCO2 [Example 191] is > 6.30

Sure, the documented pIC50 for Cc1c(N2CCc3cnc(Nc4ccnc(CS(C)(=O)=O)c4)nc3C2)cnc2c1NCCO2 [Example 49] is 6.00 to 6.30

Sure, the documented pIC50 for Cc1cc(Nc2ncc3c(n2)CN(c2cnc4c(c2C)NCCO4)CC3)cnc1NCCN1CCOCC1 [Example 36] is 6.00 to 6.30

Sure, the documented pIC50 for Cc1c(N2CCc3cnc(Nc4ccc(CS(C)(=O)=O)cc4)nc3C2)cnc2c1NCC1(CC1)O2 [Example 139] is > 6.30

Sure, the documented pIC50 for Cc1c(N)cncc1N1CCc2cnc(Nc3cnc4c(c3)CN(C)CC4)nc2C1 [Example 116] is < 6.00

Sure, the documented pIC50 for Cc1c(N2CCc3cnc(Nc4ccc([C@@H](C)S(C)(=O)=O)cc4)nc3C2)cnc2c1NCCO2 (single isomer, unassigned) [Example 158] is > 6.30

Sure, the documented pIC50 for Cc1c(N2CCc3cnc(Nc4ccc(CCS(C)(=O)=O)cc4)nc3C2)cnc2c1NCCO2 [Example 161] is > 6.30

Sure, the documented pIC50 for Cc1c(N2CCc3cnc(Nc4ccc(N5CCC(O)CC5)c(CC#N)c4)nc3C2)cnc2c1NCCO2 [Example 91] is > 6.30

---

system under test: HPK1 (SLP76 phosphorylation at Ser376 in Jurkat and EL-4 cells) (Homo sapiens, UniProt Q92918)
Type: cell-based
measurement conditions: αCD3/αCD28 Dynabeads stimulated cells, pSLP76 (Ser376) detection; read-out: HPK1 pSLP76 IC50
parameter measured: IC50

Sure, the documented IC50 for Cc1cc(Nc2ncc3c(n2)CN(c2cnc4c(c2C)NCCO4)CC3)ccc1N(C)CCN1CCOCC1 [Example 17, formic acid] is 500 to 1000 nM

Sure, the documented IC50 for Cc1c(N2CCc3cnc(Nc4ccc(C(=O)N5CC[C@@H](N(C)C)C5)cc4)nc3C2)cnc2c1NCCO2 [Example 42] is < 500 nM

Sure, the documented IC50 for Cc1c(N2CCc3cnc(Nc4ccc5c(c4)CN(CC(C)(C)O)C5)nc3C2)cnc2c1NCCO2 [Example 30] is < 500 nM

Sure, the documented IC50 for Cc1cc(Nc2ncc3c(n2)CN(c2cnc4c(c2C)NCCO4)CC3)cnc1NCCN(C)C [Example 28] is 500 to 1000 nM

---

Provide the recorded IC50 for the entries that follow.
system under test: HPK1 (SLP76 phosphorylation at Ser376 in Jurkat and EL-4 cells) (Homo sapiens, UniProt Q92918)
Format: cell-based
measurement conditions: αCD3/αCD28 Dynabeads stimulated cells, pSLP76 (Ser376) detection; read-out: HPK1 pSLP76 IC50
Method: Cellular Assay—Phospho-SLP-76 (Ser376). Inhibition of HPK1 enzymatic activity in cells was determined by detection of SLP76 phosphorylation at Ser376 residue in lysate from Jurkat (human) and EL-4 (mouse) cells. Jurkat and EL-4 cells express both HPK1 and SLP76 naturally. […] For detection, plates were read on the Envision and percent inhibition and IC50 were determined by Smart fit in Genedata Analyzer. […]

Sure, the documented IC50 for Cc1c(N2CCc3cnc(Nc4cnc5c(c4)CN(C)CC5)cc3C2)cnc2c1NCCO2 is > 1000 nM

Sure, the documented IC50 for Cc1c(N2CCc3cnc(Nc4ccc(CN(C)C)cc4)nc3C2)cnc2c1NCCO2 is > 1000 nM

Sure, the documented IC50 for Cc1cc(Nc2ncc3c(n2)CN(c2cnc4c(c2C)NCCO4)CC3)ccc1NC(=O)CN1CCC1 is < 500 nM

Sure, the documented IC50 for Cc1cc(Nc2ncc3c(n2)CN(c2cnc4c(c2C)NCCO4)CC3)ccc1C(=O)NCCN1CCOCC1 is < 500 nM

Sure, the documented IC50 for Cc1c(N2CCc3cnc(Nc4ccc5c(c4)CNC5=O)nc3C2)cnc2c1NCCO2 is > 1000 nM

Sure, the documented IC50 for Cc1c(N2CCc3cnc(Nc4ccc5c(c4)CNC5(C)C)nc3C2)cnc2c1NCCO2 is < 500 nM

Sure, the documented IC50 for Cc1c(N2CCc3cnc(Nc4ccc(CN5CCOC5=O)cc4)nc3C2)cnc2c1NCCO2 is < 500 nM

Sure, the documented IC50 for CS(=O)(=O)Cc1ccc(Nc2ncc3c(n2)CN(c2cnc4c(c2Cl)NCCO4)CC3)cc1 is < 500 nM

---

Provide the recorded IC50 for the entries that follow.
system under test: HPK1 (SLP76 phosphorylation at Ser376 in Jurkat and EL-4 cells) (Homo sapiens, UniProt Q92918)
Type: cell-based
measurement conditions: αCD3/αCD28 Dynabeads stimulated cells, pSLP76 (Ser376) detection; read-out: HPK1 pSLP76 IC50

Sure, the documented IC50 for Cc1c(N2CCc3cnc(Nc4ccc(CC(=O)N(C)C)cc4)nc3C2)cnc2c1NCCO2 is < 500 nM

Sure, the documented IC50 for Cc1cc(Nc2cc3c(cn2)CCN(c2cnc4c(c2C)NCCO4)C3)ccc1NCCN(C)C is < 500 nM

Sure, the documented IC50 for Cc1c(N2CCc3cnc(Nc4ccc(C(C)(C)C#N)cc4)nc3C2)cnc2c1NCCO2 is < 500 nM

Sure, the documented IC50 for Cc1c(N2CCc3cnc(Nc4ccc(CS(C)(=O)=O)cc4)nc3C2C)cnc2c1NCCO2 (stereo not shown) is < 500 nM

Sure, the documented IC50 for COCCOc1ccc(Nc2ncc3c(n2)CN(c2cnc4c(c2C)NCCO4)CC3)cc1 is 500 to 1000 nM

Sure, the documented IC50 for Cc1c(N2CCc3cnc(Nc4cnc(CS(C)(=O)=O)c(F)c4)nc3C2)cnc2c1NCCO2 is < 500 nM

Sure, the documented IC50 for Cc1c(N2CCc3cnc(Nc4ccc(C5CCN(C)CC5)c(CC#N)c4)nc3C2)cnc2c1NCCO2 is 500 to 1000 nM

Sure, the documented IC50 for Cc1c(N2CCc3cnc(Nc4cnc5c(c4)CN(CC(F)F)CC5)nc3C2)cnc2c1NCCO2 is 500 to 1000 nM

Sure, the documented IC50 for Cc1c(N2CCc3cnc(Nc4ccc(C5CCN(C)CC5)c(CO)c4)nc3C2)cnc2c1NCCO2 is 500 to 1000 nM

Sure, the documented IC50 for Cc1cc(Nc2ncc3c(n2)CN(c2cnc4c(c2C)NCCO4)CC3)ccc1NC(=O)CN1CCOCC1 is < 500 nM

Sure, the documented IC50 for Cc1c(N2CCc3cnc(Nc4ccc(CS(N)(=O)=O)cc4)nc3C2)cnc2c1NCCO2 is < 500 nM

Sure, the documented IC50 for Cc1c(N2CCc3cnc(Nc4ccc(CC(=O)N5CC(OC(C)C)C5)cc4)nc3C2)cnc2c1NCCO2 is < 500 nM

Sure, the documented IC50 for Cc1c(N2CCc3cnc(Nc4cnc5c(c4)CN(C)CC5)nc3C2)cnc2c1NCCO2 is 500 to 1000 nM

Sure, the documented IC50 for Cc1c(N2CCc3cnc(Nc4ccc(NCCN(C)C)nc4)cc3C2)cnc2c1NCCO2 is 500 to 1000 nM

Sure, the documented IC50 for Cc1c(N2CCc3cnc(Nc4ccc([C@@H]5CCCS5(=O)=O)cc4)cc3C2)cnc2c1NCCO2 (single isomer, unassigned) is < 500 nM

Sure, the documented IC50 for Cc1c(N2CCc3cnc(Nc4cccc(C(C)(C)O)c4)nc3C2)cnc2c1NCCO2 is < 500 nM
